Test system: P388 leukemia ip, CD2F1 mice, survival T/C
assay.overview: NCI In Vivo Anticancer Drug Screen. Data for tumor model P388 Leukemia (intraperitoneal) in CD2F1 (CDF1) mice
condition.parameters: endpoint: median survival time; dose: 120.0 mg/kg/injection; schedule: Q01DX005 (ip); vehicle: Klucel (hydroxypropylcellulose) (HPC); higher = longer survival
Toxic doses and inconclusive results are not listed.
readout.name: T/C

## Task Notebook: pull reported T/C for P388 leukemia ip, CD2F1 mice, survival T/C, entry O=C(O)C1C2CC3CC2C(C3)C1C(=O)O (stereo unspecified)
## Result 100 % of control

## Task Any idea what T/C came out for `COc1c2occc2c(OC)c2c(C)c(C(=O)OCCN3CCOCC3)oc12` on P388 leukemia ip, CD2F1 mice, survival T/C?
## Result 91 % of control

## Task # returns recorded T/C (system: P388 leukemia ip, CD2F1 mice, survival T/C) for CCC1(N(C)C)C(=O)NC(=O)N(C)C1=O (stereo unspecified)
## Result 101 % of control

## Task # value lookup — system P388 leukemia ip, CD2F1 mice, survival T/C, readout T/C, item `CCOC(=O)/C=C1\CCCn2c1ncc(C(=O)OCC)c2=O`
## Result 100 % of control

## Task Which T/C is reported with P388 leukemia ip, CD2F1 mice, survival T/C for this entry: `CCOC(=O)c1c(N=P(c2ccccc2)(c2ccccc2)c2ccccc2)n(C)c(=O)n(C)c1=O` ?
## Result 99 % of control

## Task Give T/C (P388 leukemia ip, CD2F1 mice, survival T/C) of the following compound: O=C1CCC(C(=O)N(C(=O)NC2CCCCC2)C2CCCCC2)Cc2ccccc21 (stereo unspecified)
## Result 92 % of control

## Task Enter reported T/C observed with P388 leukemia ip, CD2F1 mice, survival T/C for CCCCCCC(=O)CC1(C(=O)OC)NC(=S)NC(=O)C1C#N (stereo unspecified)
## Result 103 % of control

## Task Kindly state the measured T/C obtained for `COC(=O)c1nc(N)nc(C(=O)OC)c1C(=O)c1cccnc1` with P388 leukemia ip, CD2F1 mice, survival T/C.
## Result 93 % of control

## Task Test system P388 leukemia ip, CD2F1 mice, survival T/C; read-out T/C; what value for COc1ccc(C2OC3=C(Nc4ccc([N+](=O)[O-])cc4N3)C2=O)cc1OC (stereo unspecified) ?
## Result 93 % of control

## Task Under P388 leukemia ip, CD2F1 mice, survival T/C: T/C value of `Cc1ccc(O)c(CN2CCN(Cc3cc(C)ccc3O)CC2)c1` ?
## Result 91 % of control

## Task Please provide the recorded T/C for `CCn1c(-c2c(Cl)cc(O)cc2Cl)cc2c(Cl)cc(O)cc21` , tested on P388 leukemia ip, CD2F1 mice, survival T/C.
## Result 92 % of control

----------
System: P388 leukemia ip, CD2F1 mice, survival T/C
assay.overview: NCI In Vivo Anticancer Drug Screen. Data for tumor model P388 Leukemia (intraperitoneal) in CD2F1 (CDF1) mice
condition.parameters: endpoint: median survival time; dose: 200.0 mg/kg/injection; schedule: Q01DX001 (ip); vehicle: saline; higher = longer survival
Toxic doses and inconclusive results are not listed.
For each of the compounds below, state its T/C.

## Task Which T/C is listed for `CC(=O)NCC(C)C` ?
## Result 100 % of control

## Task // T/C lookup, key: `COc1ccc(CS(=O)(=O)c2cnc(N/N=C/c3ccc([N+](=O)[O-])o3)nc2N)c(OC)c1`
## Result 94 % of control

## Task Endpoint output: T/C of `COc1ccc(S(=O)(=O)c2cnc(N/N=C/c3ccc([N+](=O)[O-])o3)nc2N)cc1` . Value?
## Result 90 % of control

## Task Which T/C is listed for `CC(=O)Oc1ccc2c(c1)C(=O)CCCCCCC(=O)O2` ?
## Result 95 % of control

## Task Field request: T/C | item: `CC1=Nc2ccc(Cl)cc2N=C(C)C1`
## Result 107 % of control

## Task So what's the measured T/C for this one? CC(=O)C1CCC=CC1Sc1ccccc1 (stereo unspecified)
## Result 101 % of control

----------
System: P388 leukemia ip, CD2F1 mice, survival T/C
assay.overview: NCI In Vivo Anticancer Drug Screen. Data for tumor model P388 Leukemia (intraperitoneal) in CD2F1 (CDF1) mice
condition.parameters: endpoint: median survival time; dose: 400.0 mg/kg/injection; schedule: Q04DX002 (ip); vehicle: Klucel (hydroxypropylcellulose) (HPC); higher = longer survival
Inconclusive results and toxic doses are left out.
readout.name: T/C

## Task Record request: T/C value, item `CCOC(=O)N1CCC(n2nncc2OCC)CC1`
## Result 105 % of control

## Task Fill in the blank: the reported T/C of `C=C(C)c1nc(N)nc(-c2ccc([N+](=O)[O-])cc2)n1` is ____.
## Result 88 % of control

## Task State the recorded T/C for this entry: `O=S(=O)(Nc1ncccn1)c1ccc(N=Cc2c3ccccc3nc3ccccc23)cc1`
## Result 96 % of control

## Task I am curious: what T/C value has been reported for `OCc1nc(-c2ccccc2)sc1-c1cnc2ccccc2n1` ?
## Result 101 % of control

## Task Give the measured T/C of CCNC(=O)CCC(NS(=O)(=O)c1ccccc1)C(=O)O (configuration not stated) .
## Result 96 % of control

## Task Consider the molecule shown here: `Cc1cn(O)ccc1=S` What is its recorded T/C?
## Result 101 % of control

## Task Give the measured T/C of `COc1ccc(C2=C(Cl)C(=O)N(c3ccc(O)cc3)C(=O)C2(Cl)Cl)cc1` .
## Result 116 % of control

----------
System: P388 leukemia ip, CD2F1 mice, survival T/C
assay.overview: NCI In Vivo Anticancer Drug Screen. Data for tumor model P388 Leukemia (intraperitoneal) in CD2F1 (CDF1) mice
condition.parameters: endpoint: median survival time; dose: 200.0 mg/kg/injection; schedule: Q04DX003 (ip); vehicle: saline sonified; higher = longer survival
Toxic doses and inconclusive results are not listed.
readout.name: T/C

## Task Bench note: what T/C did `CN(C)c1ncnc2c1cnn2C` show?
## Result 109 % of control

## Task # lookup: T/C of NC(C=O)C(O)C(O)C(O)CO (centres undefined)
## Result 100 % of control

## Task What value of measured T/C is listed for `O=C([O-])CN(CCN(CC(=O)[O-])CC(=O)O)CC(=O)O.[Fe+5].[Na+]` ?
## Result 90 % of control

## Task What does the data say about its T/C? Entry: `O=c1[nH]cnc2[nH]ncc12`
## Result 113 % of control

----------
Tested on: P388 leukemia ip, CD2F1 mice, survival T/C
assay.overview: NCI In Vivo Anticancer Drug Screen. Data for tumor model P388 Leukemia (intraperitoneal) in CD2F1 (CDF1) mice
condition.parameters: endpoint: median survival time; dose: 100.0 mg/kg/injection; schedule: Q04DX002 (ip); vehicle: saline with Tween-80; higher = longer survival
Toxic doses and inconclusive results are not listed.
Assignment: determine reported T/C for the given compounds.

## Task Tell me reported T/C for `Nc1cc(-c2ccc(Cl)cc2)nn1-c1nnc2c(n1)[nH]c1ccccc12` , tested with P388 leukemia ip, CD2F1 mice, survival T/C.
## Result 92 % of control

## Task Test system P388 leukemia ip, CD2F1 mice, survival T/C; read-out T/C; what value for `Cc1cc(C)c(N(C)C)c(C)c1` ?
## Result 109 % of control

## Task Reported T/C for P388 leukemia ip, CD2F1 mice, survival T/C, given `O=C1C=C(NCCc2cc3c(cc2Br)OCO3)CCC1` ?
## Result 97 % of control

## Task Quick check: T/C on P388 leukemia ip, CD2F1 mice, survival T/C, item `CN1C(=O)/C(=[N+](/[O-])c2ccccc2-c2ccccc2)c2ccccc21` ?
## Result 99 % of control

## Task Requested read-out T/C, target or system P388 leukemia ip, CD2F1 mice, survival T/C, entry `CCOC(=O)CN1C=CC(=C/C(=N/S(=O)(=O)c2ccc(C)cc2)SC)C=C1`
## Result 104 % of control

## Task Request - read-out T/C | tested on P388 leukemia ip, CD2F1 mice, survival T/C | compound CCCCCC(O)/C=C/[C@H]1C(O)CC2OC(CSCCC(=O)O)C[C@@H]21 (stereo partly specified)
## Result 103 % of control

## Task What measured T/C is associated with `C1CC[N+](=c2nc(N3CCOCC3)ss2)C1` on P388 leukemia ip, CD2F1 mice, survival T/C?
## Result 99 % of control

## Task Notebook entry, P388 leukemia ip, CD2F1 mice, survival T/C assay: T/C of `CN1c2ccccc2S(=O)(=O)n2c(Cc3ccccc3)nnc21` = ?
## Result 92 % of control

## Task Entry `CCN(CC)C1=NS(=O)(=O)c2ccccc2C(SC)=C1C` , system P388 leukemia ip, CD2F1 mice, survival T/C: what T/C was measured?
## Result 106 % of control

## Task Entry `O=C1CCC(O)=C1C1=NCCCC1` , system P388 leukemia ip, CD2F1 mice, survival T/C: what T/C was measured?
## Result 94 % of control

## Task Request body: readout T/C, system P388 leukemia ip, CD2F1 mice, survival T/C, query CC(O)[C@H]1CC[C@H]2[C@@H]3CC(=O)[C@H]4C[C@H](O)[C@H](O)C[C@]4(C)[C@H]3CC[C@]12C (stereo partly specified) . Return the value.
## Result 91 % of control

## Task Item `COC(=O)C1=C(C2=C(C(=O)OC)CCC2)CCC1` with P388 leukemia ip, CD2F1 mice, survival T/C - T/C?
## Result 93 % of control

## Task Entry `O=c1cc(-c2ccccc2)c2ccc(O)c(CN(CCO)CCO)c2o1` , system P388 leukemia ip, CD2F1 mice, survival T/C: what T/C was measured?
## Result 89 % of control

## Task Please tell me: T/C of `CCO[Si](CCSC(=O)N(CCCl)CCCl)(OCC)OCC` , system P388 leukemia ip, CD2F1 mice, survival T/C?
## Result 99 % of control

## Task P388 leukemia ip, CD2F1 mice, survival T/C / T/C / COc1ccc(C2SCC(=O)N2c2nnc(C(F)(F)F)s2)c(OC)c1OC (stereo unspecified) : value?
## Result 100 % of control

## Task Lookup: T/C / P388 leukemia ip, CD2F1 mice, survival T/C / `CCN(CC)[Se]c1ccccc1`
## Result 101 % of control
